- test_target: biotinylated His-Avi-TEAD (194-411) (UniProt P28347)
- experiment: SSM screen, enrichment after two rounds of sorting
experimental_endpoint: enrichment score
// return just the number, without any unit appended

Asked: Give its enrichment score value. Item: GSPDEYIERAKECCNKGDIQCCLRYFEESGDPNVMLICLFCP (designed binder) [K13N variant of SEQ ID NO: 1]
Given back: 0.6

Asked: Returns the measured enrichment score for the input binder. Input: GSFDEYIERAKECCKKGDIQCCLRYFEESGDPNVMLICLFCP (designed binder) [P01F variant of SEQ ID NO: 1]
Given back: -1.3

Asked: So what does the record say about enrichment score for GSPDETIERAKECCKKGDIQCCLRYFEESGDPNVMLICLFCP (designed binder) [Y04T variant of SEQ ID NO: 1] ?
Given back: -0.87

Asked: Give the measured enrichment score of GSPDEYYERAKECCKKGDIQCCLRYFEESGDPNVMLICLFCP (designed binder) [I05Y variant of SEQ ID NO: 1] .
Given back: -10.9

Asked: If you can, please state the reported enrichment score value of GSPDEYIERAKECCQKGDIQCCLRYFEESGDPNVMLICLFCP (designed binder) [K13Q variant of SEQ ID NO: 1] .
Given back: 2.23

Asked: Fill in: enrichment score of GSPDEYIERARECCKKGDIQCCLRYFEESGDPNVMLICLFCP (designed binder) [K09R variant of SEQ ID NO: 1] is ___
Given back: -1.3

Asked: Any idea what enrichment score was measured for GSPDAYIERAKECCKKGDIQCCLRYFEESGDPNVMLICLFCP (designed binder) [E03A variant of SEQ ID NO: 1] ?
Given back: -2.02

Asked: Field request: enrichment score | item: GSPDEYIERALECCKKGDIQCCLRYFEESGDPNVMLICLFCP (designed binder) [K09L variant of SEQ ID NO: 1]
Given back: -11.2

Asked: Bench note: what enrichment score did GSPDEYIERQKECCKKGDIQCCLRYFEESGDPNVMLICLFCP (designed binder) [A08Q variant of SEQ ID NO: 1] show?
Given back: -6
